# assayRemarks: Drug concentration in C57BL/6 mouse brain at 3 mg/kg, po measured after 1 hr
# Format: ADME, organism-based
# settings: read-out: Ct
valueKind: concentration at 1 h (nM)

# compoundString, unitOfMeasure, valueReported
rows = [
    ("C[C@@H]1COCCN1c1cc(N2CCOC[C@@H]2C)nc2[nH]c(-c3cscn3)nc12", "nM", 1400),
]

###

# assayRemarks: Ratio of drug concentration in brain to plasma in C57BL/6 mouse at 1 mg/kg, po measured after 24 hrs
# Type: ADME, organism-based
# settings: read-out: BPR

# compoundString, Kp at 24 h
measured = [
    ("C[C@@H]1COCCN1c1cc(N2CCOC[C@@H]2C)nc2[nH]c(-c3cscn3)nc12", 1.91),
]

###

# assayRemarks: Ratio of drug concentration in brain to plasma in C57BL/6 mouse at 30 mg/kg, po measured at 24 hrs
# Format: ADME, organism-based
# settings: brain and plasma, read-out: BPR

# compoundString, Kp at 24 h
rows = [
    ("C[C@@H]1COCCN1c1cc(N2CCOC[C@@H]2C)nc2[nH]c(-c3ccccn3)nc12", 0.7),
    ("C[C@@H]1COCCN1c1cc(N2CCOC[C@@H]2C)nc2[nH]c(-c3cscn3)nc12", 0.66),
]

###

# assayRemarks: Drug concentration in C57BL/6 mouse plasma at 3 mg/kg, po measured after 3 hrs
# Type: ADME, organism-based

# compoundString, concentration at 3 h [nM]
rows = [
    ("C[C@@H]1COCCN1c1cc(N2CCOC[C@@H]2C)nc2[nH]c(-c3cscn3)nc12", 2050),
]

###

# assayRemarks: Cmax in Beagle dog at 1 mg/kg, po measured upto 24 hrs by LC/MS/MS analysis
# Assay type: ADME, organism-based, Canis lupus familiaris
# Parameters: dose 1 mg/kg, time < 24 hrs, route po
# settings: in vivo
valueKind: Cmax (nM)

# compoundString, unitOfMeasure, valueReported
records = [
    ("C[C@@H]1COCCN1c1cc(N2CCOC[C@@H]2C)nc2[nH]c(-c3ccccn3)nc12", "nM", 34),
]

###

# assayRemarks: Drug concentration in C57BL/6 mouse plasma at 3 mg/kg, po measured after 24 hrs
# Type: ADME, organism-based

# compoundString, concentration at 24 h
rows = [
    ("C[C@@H]1COCCN1c1cc(N2CCOC[C@@H]2C)nc2[nH]c(-c3cscn3)nc12", "6 nM"),
]

###

# system: 3',5'-cyclic-AMP phosphodiesterase 4D (Homo sapiens)
# Sequence (Q08499 whole entry): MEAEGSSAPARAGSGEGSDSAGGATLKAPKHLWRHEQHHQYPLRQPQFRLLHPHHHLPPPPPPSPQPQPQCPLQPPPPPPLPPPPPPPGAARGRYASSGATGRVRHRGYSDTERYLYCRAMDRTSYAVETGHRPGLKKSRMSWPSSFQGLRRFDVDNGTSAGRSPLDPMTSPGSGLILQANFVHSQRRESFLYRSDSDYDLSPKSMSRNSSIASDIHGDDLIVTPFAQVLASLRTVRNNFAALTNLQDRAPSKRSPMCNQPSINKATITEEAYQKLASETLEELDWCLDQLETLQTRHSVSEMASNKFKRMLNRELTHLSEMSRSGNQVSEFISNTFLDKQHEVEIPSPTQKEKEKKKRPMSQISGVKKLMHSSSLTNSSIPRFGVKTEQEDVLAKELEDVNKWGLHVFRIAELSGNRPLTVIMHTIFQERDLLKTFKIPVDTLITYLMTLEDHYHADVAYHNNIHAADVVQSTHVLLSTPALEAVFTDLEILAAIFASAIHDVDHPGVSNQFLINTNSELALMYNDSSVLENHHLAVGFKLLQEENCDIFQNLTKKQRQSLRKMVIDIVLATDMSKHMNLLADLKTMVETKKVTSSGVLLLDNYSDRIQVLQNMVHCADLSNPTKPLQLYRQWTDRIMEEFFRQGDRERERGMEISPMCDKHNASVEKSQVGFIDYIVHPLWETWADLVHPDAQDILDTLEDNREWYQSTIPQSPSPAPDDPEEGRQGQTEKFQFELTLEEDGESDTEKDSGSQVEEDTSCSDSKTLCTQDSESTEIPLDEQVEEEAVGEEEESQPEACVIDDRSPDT
valueKind: IC50 (µM)

# compoundString, valueReported
measured = [
    ("C[C@@H]1COCCN1c1nc(N2CCOC[C@@H]2C)cc2sc(-c3cc[nH]n3)nc12", 0.96),
    ("C[C@@H]1COCCN1c1cc(N2CCOC[C@@H]2C)nc2[nH]c(-c3cscn3)nc12", 6.3),
    ("C[C@@H]1COCCN1c1cc(N2CCOC[C@@H]2C)cc2sc(-c3cc[nH]n3)nc12", 0.042),
    ("C[C@@H]1COCCN1c1cc(N2CCOC[C@@H]2C)nc2[nH]c(-c3cc[nH]n3)nc12", 18),
    ("C[C@@H]1COCCN1c1cc(N2CCOC[C@@H]2C)nc2[nH]c(-c3cc[nH]n3)cc12", 16),
]
